Task for the reader: assign each of the following compounds its reported composite z-score.
test system: glycogen synthase kinase-3 (GSK3A per assay name; protocol says GSK3B); test: GSK3 binders on small-molecule microarrays, primary screen, biochemical, small-molecule microarray, 635 nm fluorescence, GSK3A (AID 1103); settings: small-molecule microarray binding, fluorescence 635 nm; higher = more signal; further: the record names both GSK3A and GSK3B
// no unit, no text: just the number

Prompt: GET /values?readout=composite z-score&item= CC1CC/C=C\[C@H]2OC34C=CCN(C(C)(C)C)C(=O)[C@H]3N(C(CO)C(C)C)C(=O)[C@@H]4C2C(=O)O1 (stereo not given in full)
Response: 0.156

Prompt: Would you kindly repeat that for `CC(C)CNC(=O)[C@@]1(c2ccc([N+](=O)[O-])cc2)CC(=O)N(C2CCCCC2)[C@@H]1c1ccc(CO)cc1` ?
Response: 0.484

Prompt: Queued: `C=C[C@@H](OC)[C@H](OC(=O)Nc1ccc(OC)cc1)c1ccc(OC)c(O)c1`
Response: -0.465

Prompt: Same read-out for `Cc1nc2cc(Br)ccc2c(=O)n1Cc1cccc(O)c1` ?
Response: 0.768

Prompt: Repeat with COC(=O)C1=CC(CCCO)=CC(C)N(Cc2cccc(OC(F)(F)F)c2)C=C1C(=O)OC (stereo not given)
Response: -0.606

Prompt: Moving on to the next compound: COc1ccc(C(O)C2C=CC3C(=O)N(c4ccccc4)C(=O)C3N2Nc2ccccc2)cc1 (stereo not given)
Response: 0.592

Prompt: Also `C=CCOC(=O)[C@H]1[C@@H]2C(=O)O[C@@H](c3ccccc3)[C@@H](c3ccccc3)N2[C@@H](c2ccc(OCCOC(=O)[C@H]3C[C@H]4C(=O)N[C@@H](CCCCNC(C)=O)C(=O)N4[C@H]3c3cccc(OCCO)c3)cc2)[C@]12C(=O)Nc1ccc(I)cc12` , if possible.
Response: 0.677

Prompt: Next record, please: `COCC(=C=CC[C@H](O)c1cccc(OCCO)c1)C[C@H](O)COCc1ccccc1`
Response: 0.677

Prompt: Likewise for `COCCOC(=O)N1C(=O)[C@@]2(c3cc(C#CC4=CCCCC4)ccc31)[C@H](c1ccc(O)cc1)N1[C@H](c3ccccc3)[C@H](c3ccccc3)OC(=O)[C@H]1[C@@H]2C(=O)NC[C@H](O)c1ccccc1` ?
Response: 0.348

Prompt: Also check `COCCOC(=O)N1C(=O)[C@@]2(c3cc(C#CCCO)ccc31)[C@H](C(N)=O)[C@H]1C(=O)O[C@H](c3ccccc3)[C@H](c3ccccc3)N1[C@@H]2c1ccc(OCCO)cc1`
Response: 1.23

Prompt: Entry `CC(C)C[C@@H]1NC(=O)[C@H]2C[C@@H](C(=O)NCCCCCN)[C@@H](c3cccc(OCCO)c3)N2C1=O` please
Response: -0.389

Prompt: // next record CN1C(=O)C2C=CC(C(O)c3cc(C(F)(F)F)cc(C(F)(F)F)c3)N(NC(=O)OC(C)(C)C)C2C1=O (stereo not given)
Response: 1.3

Prompt: Could you do the same for `CCCCC(=C=CC[C@H](O)c1ccc(OCCO)cc1)C[C@H](O)COCc1ccccc1` , please?
Response: -0.171

Prompt: Another: CCOC(=O)C1=CCC(c2ccco2)N(S(=O)(=O)c2ccc(C)cc2)C1 (stereo not given)
Response: 1.3

Prompt: Check `CN(C)CCCC[C@@H]1NC(=O)[C@@H]2C[C@H](C(=O)O)[C@H](c3cccc(OCCO)c3)N2C1=O` too.
Response: -0.461
